For each of the compounds below, state its pIC50.
# Assay Target: protein-protein interaction between Kras and SOS1 (biotin-tagged human Kras loaded with GDP, His-tagged human SOS1) (Homo sapiens (Human), UniProt P01116, G12D)
# Test Summary: Protein-protein interaction inhibition between Kras and SOS1 (KrasG12D-SOS PPI) using AlphaScreen
# Assay type: biochemical
# Measurement Parameters: AlphaScreen; biotin-tagged human Kras loaded with GDP, His-tagged human SOS1; read-out: KRAS G12D-SOS PPI IC50
Numbered stars: 1 amine (or outer) side, 2 acyl side, 3 side chain; on linkers, the order of the positions; unused ones are H or OH. Bridge positions count the residues as written; N and C are the ends. Square brackets hold non-standard residues; d marks the D form. Peptide text beside a SMILES is read from it. * marks the point of attachment. hPhe(3,5-F2-4-CF3) = N[C@@H](CCc1cc(F)c(C(F)(F)F)c(F)c1)C(=O)O; hPhe(3-Cl-4-CF3) = N[C@@H](CCc1ccc(C(F)(F)F)c(Cl)c1)C(=O)O; X19 = O=C([C@@H]1C[C@@H](N2CCC(F)(F)CC2)CN1[*:1])[*:2]; NMePhe(4-CF3) = CN[C@@H](Cc1ccc(C(F)(F)F)cc1)C(=O)O; NEtPhe(2-Cl) = CCN[C@@H](Cc1ccccc1Cl)C(=O)O; NMeCha = CN[C@@H](CC1CCCCC1)C(=O)O; Hyp = O=C(O)[C@@H]1C[C@@H](O)CN1; NMeI = CC[C@H](C)[C@H](NC)C(=O)O; NMeD = CN[C@@H](CC(=O)O)C(=O)O; NMeL = CN[C@@H](CC(C)C)C(=O)O; NMeV = CN[C@H](C(=O)O)C(C)C; NMeS = CN[C@@H](CO)C(=O)O; Morpholide = C1CN(*)CCO1; NMeA = CN[C@@H](C)C(=O)O; Piperidide = C1CCN(*)CC1; Pyrrolidide = C1CCN(*)C1; Ac5c = NC1(C(=O)O)CCCC1; Aze = O=C(O)[C@@H]1CCN1; Isopentyl = CC(C)CC*; Sar = CNCC(=O)O
Scale note: pIC50 = -log10(concentration in M).

Request: I have this compound here, CCO[C@@H]1C[C@H]2C(=O)NC3(CCCC3)C(=O)N(C)[C@@H]([C@@H](C)CC)C(=O)N(C)[C@H](C(=O)N3CCCC3)CC(=O)N(C)[C@@H](CC(C)C)C(=O)N[C@@H]([C@@H](C)CC)C(=O)N(C)[C@@H](C)C(=O)N3CC[C@H]3C(=O)N(C)[C@@H](Cc3ccc(C(F)(F)F)cc3)C(=O)N(C)CC(=O)N[C@@H](CCc3cc(F)c(C(F)(F)F)c(F)c3)C(=O)N2C1 [Compound 1210] ([NMeL]I[NMeA][Aze][NMePhe(4-CF3)][Sar][hPhe(3,5-F2-4-CF3)][Hyp](Et)[Ac5c][NMeI][NMeD]-Pyrrolidide; lactam N-11) , and I need its recorded pIC50.
Response: 9.13

Request: CC[C@H](C)[C@@H]1NC(=O)[C@H](C)N(C)C(=O)C[C@@H](C(=O)N2CCOCC2)N(C)C(=O)[C@H](C(C)C)N(C)C(=O)C2(CCCC2)NC(=O)[C@H](Cc2ccccc2Cl)N(CC)C(=O)[C@H](CCc2ccc(C(F)(F)F)c(Cl)c2)NC(=O)CN(C)C(=O)[C@H](CC2CCCCC2)N(C)C(=O)CN(C)C(=O)CN(C)C1=O [Compound 2167] ([NMeA]I[Sar][Sar][NMeCha][Sar][hPhe(3-Cl-4-CF3)][NEtPhe(2-Cl)][Ac5c][NMeV][NMeD]-Morpholide; lactam N-11) , same question.
Response: 6.42

Request: Let us now turn to CC[C@H](C)[C@@H]1NC(=O)[C@H](CC(C)C)N(C)C(=O)C[C@@H](C(=O)N2CCCCC2)N(C)C(=O)[C@H](C(C)C)N(C)C(=O)C2(CCCC2)NC(=O)[C@@H]2CCCN2C(=O)[C@H](CCc2ccc(C(F)(F)F)c(Cl)c2)NC(=O)CN(C)C(=O)[C@H](COCCC(C)C)N(C)C(=O)[C@@H]2CCN2C(=O)[C@H](C)N(C)C1=O [Compound 470] ([NMeL]I[NMeA][Aze][NMeS](Isopentyl)[Sar][hPhe(3-Cl-4-CF3)]P[Ac5c][NMeV][NMeD]-Piperidide; lactam N-11)
Response: 8.66

Request: What would you report for CC[C@H](C)[C@@H]1NC(=O)[C@H](C)N(C)C(=O)C[C@@H](C(=O)N2CCCCC2)N(C)C(=O)[C@H](C(C)C)N(C)C(=O)C2(CCCC2)NC(=O)[C@@H]2C[C@@H](N3CCC(F)(F)CC3)CN2C(=O)[C@H](CCc2ccc(C(F)(F)F)c(Cl)c2)NC(=O)CN(C)C(=O)[C@H](CC2CCCCC2)N(C)C(=O)CN(C)C(=O)CN(C)C1=O [Compound 914] ([NMeA]I[Sar][Sar][NMeCha][Sar][hPhe(3-Cl-4-CF3)][X19][Ac5c][NMeV][NMeD]-Piperidide; lactam N-11) ?
Response: 8.96

====

# Assay Target: protein-protein interaction between Kras and SOS1 (biotin-tagged human Kras loaded with GDP, His-tagged human SOS1) (Homo sapiens (Human), UniProt P01116, G12D)
# Test Summary: Protein-protein interaction inhibition between Kras and SOS1 (KrasG12D-SOS PPI) using AlphaScreen
# Format: biochemical
# Measurement Parameters: AlphaScreen; biotin-tagged human Kras loaded with GDP, His-tagged human SOS1; read-out: KRAS G12D-SOS PPI IC50
Numbered stars: 1 amine (or outer) side, 2 acyl side, 3 side chain; on linkers, the order of the positions; unused ones are H or OH. Bridge positions count the residues as written; N and C are the ends. Square brackets hold non-standard residues; d marks the D form. Peptide text beside a SMILES is read from it. * marks the point of attachment. hPhe(3-Cl-4-CF3) = N[C@@H](CCc1ccc(C(F)(F)F)c(Cl)c1)C(=O)O; X136 = O=C(CN(CCN1CCNCC1)[*:1])[*:2]; NMeCha = CN[C@@H](CC1CCCCC1)C(=O)O; NMeChg = CN[C@H](C(=O)O)C1CCCCC1; NMeD = CN[C@@H](CC(=O)O)C(=O)O; NMeL = CN[C@@H](CC(C)C)C(=O)O; NMeNva = CCC[C@H](NC)C(=O)O; NMeV = CN[C@H](C(=O)O)C(C)C; d(β3hA) = C[C@@H](N)CC(=O)O; Piperidide = C1CCN(*)CC1; Ac5c = NC1(C(=O)O)CCCC1; Aze = O=C(O)[C@@H]1CCN1; Sar = CNCC(=O)O
So I've got a bunch of molecules here, and I need their IC50 values.
Answer format reminder: number followed by unit.

Request: Find the recorded IC50 belonging to CCC[C@H]1C(=O)N2CC[C@H]2C(=O)N(C)[C@@H](CC2CCCCC2)C(=O)N(C)CC(=O)N[C@@H](CCc2ccc(C(F)(F)F)c(Cl)c2)C(=O)N2CCC[C@H]2C(=O)NC2(CCCC2)C(=O)N(C)[C@@H](C(C)C)C(=O)N[C@H](C)CC(=O)N(C)[C@@H](CC(C)C)C(=O)N[C@@H]([C@@H](C)CC)C(=O)N1C [Compound 1560] (cyclo([Ac5c][NMeV][d(β3hA)][NMeL]I[NMeNva][Aze][NMeCha][Sar][hPhe(3-Cl-4-CF3)]P)) and report it.
Response: 160 nM

Request: Please give the result for CC[C@H](C)[C@@H]1NC(=O)[C@H](CC(C)C)N(C)C(=O)C[C@@H](C(=O)N2CCCCC2)N(C)C(=O)[C@H](C2CCCCC2)N(C)C(=O)C2(CCCC2)NC(=O)CN(CCN2CCNCC2)C(=O)[C@H](CCc2ccc(C(F)(F)F)c(Cl)c2)NC(=O)CN(C)C(=O)[C@H](CC2CCCCC2)N(C)C(=O)CN(C)C(=O)CN(C)C1=O [Compound 2184] ([NMeL]I[Sar][Sar][NMeCha][Sar][hPhe(3-Cl-4-CF3)][X136][Ac5c][NMeChg][NMeD]-Piperidide; lactam N-11) too.
Response: 7.9 nM

====

# Assay Target: protein-protein interaction between Kras and SOS1 (biotin-tagged human Kras loaded with GDP, His-tagged human SOS1) (Homo sapiens (Human), UniProt P01116, G12D)
# Test Summary: Protein-protein interaction inhibition between Kras and SOS1 (KrasG12D-SOS PPI) using AlphaScreen;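 note: kras produced in E. coli, Ni-coupled donor beads and streptavidin acceptor beads, excitation 680 nm with emission detected at 520–620 nm via singlet oxygen transfer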
# Assay type: biochemical
# Measurement Parameters: AlphaScreen; biotin-tagged human Kras loaded with GDP, His-tagged human SOS1; read-out: KRAS G12D-SOS PPI IC50
Bridge positions count the residues as written; N and C are the ends. Square brackets hold non-standard residues; d marks the D form. Peptide text beside a SMILES is read from it. * marks the point of attachment. hPhe(3-Cl-4-CF3) = N[C@@H](CCc1ccc(C(F)(F)F)c(Cl)c1)C(=O)O; NMeCha = CN[C@@H](CC1CCCCC1)C(=O)O; NMeCba = CN[C@@H](CC1CCC1)C(=O)O; NMeD = CN[C@@H](CC(=O)O)C(=O)O; NMeV = CN[C@H](C(=O)O)C(C)C; d(β3hA) = C[C@@H](N)CC(=O)O; NMeA = CN[C@@H](C)C(=O)O; Piperidide = C1CCN(*)CC1; Ac5c = NC1(C(=O)O)CCCC1; Aze = O=C(O)[C@@H]1CCN1; Sar = CNCC(=O)O
Parameter: IC50 (nM)
Give the value in nM but do not write nM after it.

Request: Requested read-out: IC50. Entry: CC[C@H](C)[C@@H]1NC(=O)[C@H](CC2CCC2)N(C)C(=O)C[C@@H](C)NC(=O)[C@H](C(C)C)N(C)C(=O)C2(CCCC2)NC(=O)[C@@H]2CCCN2C(=O)[C@H](CCc2ccc(C(F)(F)F)c(Cl)c2)NC(=O)CN(C)C(=O)[C@H](CC2CCCCC2)N(C)C(=O)[C@@H]2CCN2C(=O)[C@H](C)N(C)C1=O [Compound 455] (cyclo([Ac5c][NMeV][d(β3hA)][NMeCba]I[NMeA][Aze][NMeCha][Sar][hPhe(3-Cl-4-CF3)]P))
Response: 59

Request: Same question, CC[C@H](C)[C@@H]1NC(=O)[C@H](C)N(C)C(=O)C[C@@H](C(=O)N2CCCCC2)N(C)C(=O)[C@H](C(C)C)N(C)C(=O)C2(CCCC2)NC(=O)[C@@H]2CCCN2C(=O)[C@H](CCc2ccc(C(F)(F)F)c(Cl)c2)NC(=O)CN(C)C(=O)[C@H](CC2CCCCC2)N(C)C(=O)[C@@H]2CCN2C(=O)[C@H](C)N(C)C1=O [Compound 1562] ([NMeA]I[NMeA][Aze][NMeCha][Sar][hPhe(3-Cl-4-CF3)]P[Ac5c][NMeV][NMeD]-Piperidide; lactam N-11) this time
Response: 4.8
